# target.system: recombinant human kappa (KOR) opioid receptor (Homo sapiens, UniProt P41145)
# method.summary: Competitive radioligand binding at KOR ([3H]diprenorphine), CHO-K1 membranes
# details: inhibition of specific [3H]diprenorphine (1 nM) binding; one experiment in triplicate; read-out: Kappa Opioid Receptor IC50
quantity.name: pIC50
Give bare numbers, as −log10 of the molar value.

I'm curious: which pIC50 was measured for "CN(C(=O)Cc1ccc(F)cc1F)[C@H](CN1CC[C@H](OCCO)C1)c1ccc(OCCO)cc1" tested on recombinant human kappa (KOR) opioid receptor (Homo sapiens, UniProt P41145)?
4.24

---

# target.system: recombinant human kappa (KOR) opioid receptor (Homo sapiens)
# method.summary: Competitive radioligand binding at KOR ([3H]diprenorphine), CHO-K1 membranes
Exercise: state measured Ki for each of the compounds provided.
Answers are plain numbers, in nM.

CN(C(=O)Cc1ccc(F)c(F)c1)[C@H](CN1CC[C@H](OCCO)C1)c1ccc(OCCO)cc1	189

Let us move to another entry and its Ki.
// Ki lookup, key: "CN([C@H](CN1CC[C@H](O)C1)c1ccc(OCCO)cc1)S(=O)(=O)Cc1ccc(C(F)(F)F)cc1"
141
